The measurements presented in this section are drawn from patent US10155756B2.

Assay: in vivo
Design: species or system SD rats
Details: SD, rat, iv, 2 mg/kg
Counter-ions that a name gives are not always drawn.
Endpoint: Tmax (min)
Provide only the numeric value, understood in min.

Given the molecule CCc1nn2ccc(Cl)cc2c1C(=O)NCc1ccc(N2CCC(c3ccc(OC(F)(F)F)cc3)CC2)cc1 [TJ170298 (hydrochloride)] , what is its reported Tmax?
1.98

====

System: self-luminescent tuberculosis
Experiment: microbe, parasite or virus in culture
Assay type: cell-based
Details: Mycobacterium tuberculosis, 72 h; read-out: MIClux
Endpoint: MIC

Cc1ccn2nc(C)c(C(=O)NCc3ccc(N4CCC(Oc5ccc(OC(F)(F)F)cc5)CC4)cc3)c2c1 :: < 1 µg/mL
CCc1nn2ccc(Cl)cc2c1C(=O)NCc1ccc(C(F)(F)F)cc1 :: < 1 µg/mL
CCOc1ccn2nc(C)c(C(=O)NCc3ccc(N4CCC(c5ccc(OC(F)(F)F)cc5)CC4)cc3)c2c1 :: < 1 µg/mL
O=C(NCc1ccc(N2CCC(c3ccc(OC(F)(F)F)cc3)CC2)cc1)c1c(C2CC2)nn2ccc(Cl)cc12 :: < 1 µg/mL
Cc1ccn2nc(C)c(C(=O)NCc3ccc(N4CCC(C(F)(F)F)CC4)cc3)c2c1 :: < 1 µg/mL
CCc1nn2ccc(Cl)cc2c1C(=O)Nc1ccc(N2CCC(c3ccc(OC(F)(F)F)cc3)CC2)cc1 :: > 10 µg/mL
CCc1nn2ccc(Cl)cc2c1C(=O)NCc1ccc(F)cc1 :: > 10 µg/mL

# lookup: MIC of `Cc1ccn2nc(C)c(C(=O)NCc3cnc(-c4ccc(OC(F)(F)F)cc4)nc3)c2c1`
< 1 µg/mL

====

The following compounds are shown together with reported MIC values.
System: self-luminescent tuberculosis
Test: microbe, parasite or virus in culture
Format: cell-based
Conditions: Mycobacterium tuberculosis, 72 h; read-out: MIClux

Worked cases, MIC given:
CCc1nn2ccc(Cl)cc2c1C(=O)NC(C)c1ccc(N2CCC(c3ccc(OC(F)(F)F)cc3)CC2)cc1 (stereo not shown) [TJ830070] :: > 10 µg/mL
O=C(NCc1ccc(N2CCC(c3ccc(OC(F)(F)F)cc3)CC2)cc1)c1c(-c2ccccc2)nn2ccc(Cl)cc12 [TJ170386] :: > 10 µg/mL
COc1ccn2nc(C)c(C(=O)NCc3ccc(N4CCC(c5ccc(OC(F)(F)F)cc5)CC4)cc3)c2c1 [TJ830047] :: < 1 µg/mL
Cc1ccn2nc(C)c(C(=O)NCc3ccc(C(F)(F)F)cc3)c2c1 [TJ830072] :: < 1 µg/mL
Cc1nn2ccc(Br)cc2c1C(=O)NCc1ccc(N2CCC(c3ccc(OC(F)(F)F)cc3)CC2)cc1 [TJ830008] :: < 1 µg/mL

Lab note: need MIC for Cc1nn2ccccc2c1C(=O)NCc1ccc(C(F)(F)F)cc1 [TJ830069] on self-luminescent tuberculosis, anyone have it?
1 to 10 µg/mL

Provide value of MIC for this record tested with self-luminescent tuberculosis: CCc1nn2ccc(Cl)cc2c1C(=O)NCc1cn(-c2ccc(OC(F)(F)F)cc2)nn1 [TJ064983]
> 10 µg/mL

====

Experiment: in vivo
Set-up: species or system SD rats
Conditions: SD, rat, po, 10 mg/kg
Counter-ions that a name gives are not always drawn.
The following molecules are shown together with reported Cmax values.

Cc1ccn2nc(C)c(C(=O)NCc3ccc(N4CCC(c5ccc(OC(F)(F)F)cc5)CC4)cc3)c2c1 :: 644 ng/mL

Next molecule, Cmax to be filled in.
Data request, read-out Cmax, for CCc1nn2ccc(Cl)cc2c1C(=O)NCc1ccc(N2CCC(c3ccc(OC(F)(F)F)cc3)CC2)cc1 [TJ170298 (hydrochloride)]
509 ng/mL

====

# MIC listing for each entry below
Tested on: self-luminescent tuberculosis
Experiment: microbe, parasite or virus in culture
Format: cell-based
Details: Mycobacterium tuberculosis, 72 h; read-out: MIClux

Answered examples (4):
Cc1nn2ccc(C(C)C)cc2c1C(=O)NCc1ccc(N2CCC(c3ccc(OC(F)(F)F)cc3)CC2)cc1 [TJ830073] :: 1 to 10 µg/mL
CCc1nn2ccc(Cl)cc2c1C(=O)NCc1ccc(-c2ccc(OC(F)(F)F)cc2)nc1 [TJ830028] :: < 1 µg/mL
O=C(NCc1ccc(N2CCC(c3ccc(OC(F)(F)F)cc3)CC2)cc1)c1cnn2ccc(Cl)cc12 [TJ170371] :: 1 to 10 µg/mL
Cc1ccn2nc(C)c(C(=O)NCc3ccc(Oc4ccc(OC(F)(F)F)cc4)cc3)c2c1 [TJ830153] :: < 1 µg/mL

Which MIC reading was recorded for the compound CCc1nn2ccc(Cl)cc2c1C(=O)NC(C)(C)c1ccc(N2CCC(c3ccc(OC(F)(F)F)cc3)CC2)cc1 [TJ064987] ?
> 10 µg/mL

For the compound Cc1nn2ccc(C(C)(C)C)cc2c1C(=O)NCc1ccc(N2CCC(c3ccc(OC(F)(F)F)cc3)CC2)cc1 [TJ830075] , what MIC is on record?
> 10 µg/mL

# MIC lookup, item CCc1nn2ccc(Cl)cc2c1C(=O)NCCc1ccc(N2CCC(c3ccc(OC(F)(F)F)cc3)CC2)cc1 [TJ830128]
1 to 10 µg/mL

Which value of MIC has been reported for CCc1nn2ccc(Cl)cc2c1C(=O)NCc1ccc(C(=O)OC)cc1 [TJ064814] in the records?
1 to 10 µg/mL
